MIC listing for selected compounds.
# Test system: Escherichia coli
# assay.protocol: Antibacterial activity against multidrug resistant Escherichia coli MS834 harbouring mcr-1 assessed as reduction in bacterial growth by microbroth dilution assay
# Assay type: functional
Positions of bridges follow the written chain, without caps; N, C: chain ends. Non-standard residues stand in square brackets, D forms with d. Residues, ends and D or L forms follow the SMILES beside them. ξ: configuration not given here. *: point of attachment. Hexanoyl(4ξ-Me) = CCC(C)CCC(=O)*; dOrn = NCCC[C@@H](N)C(=O)O; Orn = NCCC[C@H](N)C(=O)O
The figure you give is taken to be in µg/mL; do not add the unit.

compound	uom	MIC
CCC(C)CCC(=O)N[C@H](CC(N)=O)C(=O)N[C@H](Cc1c[nH]c2ccccc12)C(=O)N[C@H](Cc1c[nH]c2ccccc12)C(=O)N[C@H](CCCN)C(=O)N[C@@H](CCCN)C(=O)NCC(=O)N[C@H](CCCN)C(=O)N[C@@H](Cc1c[nH]c2ccccc12)C(=O)N[C@@H]1C(=O)N[C@@H]([C@@H](C)CC)C(=O)NCC(=O)N[C@@H](CO)C(=O)O[C@@H]1C (stereo partly drawn) ({Hexanoyl(4ξ-Me)}-[dN][dW][dW][dOrn][Orn]G[dOrn]WTIGS; ester 9-C)	µg/mL	32

Now look at this entry.
Param item = CCC(C)CCC(=O)N[C@H](CC(N)=O)C(=O)N[C@H](Cc1ccccc1)C(=O)N[C@H](Cc1c[nH]c2ccccc12)C(=O)N[C@H](CCCN)C(=O)N[C@@H](CCCN)C(=O)NCC(=O)N[C@H](CCCN)C(=O)N[C@@H](Cc1c[nH]c2ccccc12)C(=O)N[C@@H]1C(=O)N[C@@H]([C@@H](C)CC)C(=O)NCC(=O)N[C@@H](CO)C(=O)O[C@@H]1C (stereo partly drawn) ; retrieve measured MIC.
8

====

MIC listing for selected compounds.
# Test system: Enterococcus faecalis
# assay.protocol: Antibacterial activity against vancomycin resistant Enterococcus faecalis V583 assessed as reduction in bacterial growth by microbroth dilution assay
# Assay type: functional
The figure you give is taken to be in µg/mL; do not add the unit.

compound	obs.value
CN[C@H](CC(C)C)C(=O)N[C@H]1C(=O)N[C@@H](CC(N)=O)C(=O)N[C@H]2C(=O)N[C@H]3C(=O)N[C@H](C(=O)N[C@H](C(=O)O)c4cc(O)cc(O)c4-c4cc3ccc4O)[C@H](O)c3ccc(c(Cl)c3)Oc3cc2cc(c3O[C@@H]2O[C@H](CO)[C@@H](O)[C@H](O)[C@H]2O[C@H]2C[C@](C)(N)[C@H](O)[C@H](C)O2)Oc2ccc(cc2Cl)[C@H]1O [VANCOMYCIN]	32

Param item = CC1(C)S[C@@H]2[C@H](NC(=O)[C@H](N)c3ccc(O)cc3)C(=O)N2[C@H]1C(=O)O [AMOXICILLIN] ; retrieve measured MIC.
0.5

====

# System: Escherichia coli
# assay.protocol: Antibacterial activity against multidrug resistant Escherichia coli MS834 harbouring mcr-1 assessed as reduction in bacterial growth by microbroth dilution assay
# Format: functional
measure.name: MIC

Reference set, count: 2
compound	MIC
CCC(C)CCC(=O)N[C@H](CC(N)=O)C(=O)N[C@H](CCCCN)C(=O)N[C@H](Cc1c[nH]c2ccccc12)C(=O)N[C@H](CCCN)C(=O)N[C@@H](CCCN)C(=O)NCC(=O)N[C@H](CCCN)C(=O)N[C@@H](Cc1c[nH]c2ccccc12)C(=O)N[C@@H]1C(=O)N[C@@H]([C@@H](C)CC)C(=O)NCC(=O)N[C@@H](CO)C(=O)O[C@@H]1C (stereo partly drawn)	> 32 µg/mL
CCC(C)CCC(=O)N[C@H](CC(N)=O)C(=O)N[C@H](C(=O)N[C@H](Cc1c[nH]c2ccccc12)C(=O)N[C@H](CCCN)C(=O)N[C@@H](CCCN)C(=O)NCC(=O)N[C@H](CCCN)C(=O)N[C@@H](Cc1c[nH]c2ccccc12)C(=O)N[C@@H]1C(=O)N[C@@H]([C@@H](C)CC)C(=O)NCC(=O)N[C@@H](CO)C(=O)O[C@@H]1C)C(c1ccccc1)c1ccccc1 (stereo partly drawn)	16 µg/mL

Param item = CCC(C)CCC(=O)N[C@H](CC(N)=O)C(=O)N[C@@H](Cc1ccc(Br)cc1)C(=O)N[C@H](Cc1c[nH]c2ccccc12)C(=O)N[C@H](CCCN)C(=O)N[C@@H](CCCN)C(=O)NCC(=O)N[C@H](CCCN)C(=O)N[C@@H](Cc1c[nH]c2ccccc12)C(=O)N[C@@H]1C(=O)N[C@@H]([C@@H](C)CC)C(=O)NCC(=O)N[C@@H](CO)C(=O)O[C@@H]1C (stereo partly drawn) ; retrieve measured MIC.
> 32 µg/mL

====

# System: Staphylococcus aureus
# assay.protocol: Antibacterial activity against methicillin-resistant Staphylococcus aureus […] assessed as reduction in bacterial growth by microbroth dilution assay
# Assay type: functional
measure.name: MIC (µg/mL)
The figure you give is taken to be in µg/mL; do not add the unit.

Find the measured MIC: item "Cc1onc(-c2ccccc2)c1C(=O)N[C@@H]1C(=O)N2[C@@H]1SC(C)(C)[C@@H]2C(=O)O" , target or system Staphylococcus aureus.
128

====

# Test system: Enterococcus faecalis
# assay.protocol: Antibacterial activity against vancomycin resistant Enterococcus faecalis V583 assessed as reduction in bacterial growth by microbroth dilution assay
# Format: functional
MIC listing for selected compounds.

Reference set, count: 2
compound	MIC
CCC(C)CCC(=O)N[C@H](CC(N)=O)C(=O)N[C@@H](Cc1ccc(Br)cc1)C(=O)N[C@H](Cc1c[nH]c2ccccc12)C(=O)N[C@H](CCCN)C(=O)N[C@@H](CCCN)C(=O)NCC(=O)N[C@H](CCCN)C(=O)N[C@@H](Cc1c[nH]c2ccccc12)C(=O)N[C@@H]1C(=O)N[C@@H]([C@@H](C)CC)C(=O)NCC(=O)N[C@@H](CO)C(=O)O[C@@H]1C (stereo partly drawn)	> 32 µg/mL
CCC(C)CCC(=O)N[C@H](CC(N)=O)C(=O)N[C@H](C(=O)N[C@H](Cc1c[nH]c2ccccc12)C(=O)N[C@H](CCCN)C(=O)N[C@@H](CCCN)C(=O)NCC(=O)N[C@H](CCCN)C(=O)N[C@@H](Cc1c[nH]c2ccccc12)C(=O)N[C@@H]1C(=O)N[C@@H]([C@@H](C)CC)C(=O)NCC(=O)N[C@@H](CO)C(=O)O[C@@H]1C)C(c1ccccc1)c1ccccc1 (stereo partly drawn)	> 32 µg/mL

Now look at this entry.
Find the measured MIC: item CCC(C)CCC(=O)N[C@H](CC(N)=O)C(=O)N[C@H](Cc1ccccc1)C(=O)N[C@H](Cc1c[nH]c2ccccc12)C(=O)N[C@H](CCCN)C(=O)N[C@@H](CCCN)C(=O)NCC(=O)N[C@H](CCCN)C(=O)N[C@@H](Cc1c[nH]c2ccccc12)C(=O)N[C@@H]1C(=O)N[C@@H]([C@@H](C)CC)C(=O)NCC(=O)N[C@@H](CO)C(=O)O[C@@H]1C (stereo partly drawn) , target or system Enterococcus faecalis.
> 32 µg/mL

====

MIC listing for selected molecules.
# Tested on: Staphylococcus aureus
# assay.protocol: Antibacterial activity against methicillin-resistant Staphylococcus aureus […] assessed as reduction in bacterial growth by microbroth dilution assay
# Format: functional
Positions of bridges follow the written chain, without caps; N, C: chain ends. Non-standard residues stand in square brackets, D forms with d. Residues, ends and D or L forms follow the SMILES beside them. ξ: configuration not given here. *: point of attachment. Hexanoyl(4ξ-Me) = CCC(C)CCC(=O)*; dOrn = NCCC[C@@H](N)C(=O)O; Orn = NCCC[C@H](N)C(=O)O

molecule	MIC
CCC(C)CCC(=O)N[C@H](CC(N)=O)C(=O)N[C@H](Cc1ccc(O)cc1)C(=O)N[C@H](Cc1c[nH]c2ccccc12)C(=O)N[C@H](CCCN)C(=O)N[C@@H](CCCN)C(=O)NCC(=O)N[C@H](CCCN)C(=O)N[C@@H](Cc1c[nH]c2ccccc12)C(=O)N[C@@H]1C(=O)N[C@@H]([C@@H](C)CC)C(=O)NCC(=O)N[C@@H](CO)C(=O)O[C@@H]1C (some centres not stated) ({Hexanoyl(4ξ-Me)}-[dN][dY][dW][dOrn][Orn]G[dOrn]WTIGS; ester 9-C)	> 32 µg/mL

Now look at this entry.
Param item = CCC(C)CCC(=O)N[C@H](CC(N)=O)C(=O)N[C@@H](Cc1ccc(Br)cc1)C(=O)N[C@H](Cc1c[nH]c2ccccc12)C(=O)N[C@H](CCCN)C(=O)N[C@@H](CCCN)C(=O)NCC(=O)N[C@H](CCCN)C(=O)N[C@@H](Cc1c[nH]c2ccccc12)C(=O)N[C@@H]1C(=O)N[C@@H]([C@@H](C)CC)C(=O)NCC(=O)N[C@@H](CO)C(=O)O[C@@H]1C (some centres not stated) ; retrieve measured MIC.
> 32 µg/mL

// provenance: ChEMBL document CHEMBL5385930
